The next entries give measured pIC50 for EGFR (human) (UniProt P00533).
pIC50: −log10 of the molar value.

[[record]]
chemical_smiles = "CC(C)c1nc(-c2cccc(NS(=O)(=O)c3c(F)cccc3F)c2)c(-c2ccnc(Nc3ccc(N4CCN(CCO)CC4)nc3)n2)s1"
metric = "pIC50"
recorded_measurement = "> 7.00"

[[record]]
chemical_smiles = "CC(C)c1nc(-c2cccc(NS(=O)(=O)c3ccccc3)c2)c(-c2ccnc(Nc3ccc(CC4CCN(CCS(C)(=O)=O)CC4)c(F)c3)n2)s1"
metric = "pIC50"
recorded_measurement = "6.00 to 7.00"

[[record]]
chemical_smiles = "CCc1nc(-c2cccc(CNS(=O)(=O)c3ccccc3)c2)c(-c2ccnc(Nc3ccc(N4CCN(C(C)=O)CC4)nc3)n2)s1"
metric = "pIC50"
recorded_measurement = "6.00 to 7.00"


Now for the compound whose pIC50 we want.
Specify reported pIC50 for the compound shown: Nc1nc(-c2cccc(NS(=O)(=O)c3c(F)cccc3F)c2)c(-c2ccnc(Nc3ccc(N4CCOCC4)nc3)n2)s1
6.00 to 7.00

---

biological target: EGFR (human)
metric: IC50

[[record]]
chemical_smiles = "CC(C)c1nc(-c2ccc(F)c(NS(=O)(=O)c3c(F)cccc3F)c2)c(-c2ccnc(Nc3cccc(CCS(N)(=O)=O)c3)n2)s1"
metric = "IC50"
recorded_measurement = "100 to 1000 nM"

[[record]]
chemical_smiles = "COc1cc(CCN2CCCCC2)c(F)cc1Nc1nccc(-c2sc(C(C)C)nc2-c2cccc(NS(=O)(=O)c3c(F)cccc3F)c2)n1"
metric = "IC50"
recorded_measurement = "100 to 1000 nM"


Specify reported IC50 for the molecule shown: COc1cc(N2CCN(CCS(C)(=O)=O)CC2)c(C)cc1Nc1nccc(-c2sc(C)nc2-c2cccc(NS(=O)(=O)c3c(F)cccc3F)c2)n1
< 100 nM

Specify reported IC50 for the molecule shown: COc1cc(N2CCN(CCF)CC2)ccc1Nc1nccc(-c2sc(C(C)C)nc2-c2cccc(NS(=O)(=O)c3c(F)cccc3F)c2)n1
100 to 1000 nM

Specify reported IC50 for the molecule shown: O=S(=O)(Nc1cccc(-c2nc(N3CCCC3)sc2-c2ccnc(Nc3ccc(N4CCN(CCF)CC4)c(F)c3)n2)c1)c1c(F)cccc1F
< 100 nM

Specify reported IC50 for the molecule shown: CCOc1ccc(Nc2nccc(-c3sc(C(C)C)nc3-c3ccc(F)c(NS(=O)(=O)c4c(F)cccc4F)c3)n2)cc1N1CCN(CCF)CC1
< 100 nM

Specify reported IC50 for the molecule shown: CC(C)c1nc(-c2cc(F)cc(NS(=O)(=O)c3c(F)cccc3F)c2)c(-c2ccnc(Nc3ccc(N4CCOCC4)nc3)n2)s1
100 to 1000 nM

---

Below, each of the compounds is paired with its reported IC50 value.
molecular target: UniProt:P00533

[[record]]
chemical_smiles = "COc1cc(N2CCC3(CC2)CCN(S(C)(=O)=O)CC3)c(C)cc1Nc1nccc(-c2sc(C(C)C)nc2-c2cccc(NS(=O)(=O)c3c(F)cccc3F)c2F)n1"
metric = "IC50"
recorded_measurement = "100 to 1000 nM"


// output IC50; input COc1cc(N2CCN(CCS(C)(=O)=O)CC2)c(C)cc1Nc1nccc(-c2sc(C(C)C)nc2-c2cccc(NS(=O)(=O)c3cccs3)c2)n1 ; system UniProt:P00533
< 100 nM

// output IC50; input CC(C)c1nc(-c2ccc(F)c(NS(=O)(=O)c3c(F)cccc3F)c2)c(-c2ccnc(Nc3ccnc(N4CCOCC4)c3)n2)s1 ; system UniProt:P00533
100 to 1000 nM

// output IC50; input O=S1(=O)Cc2ccc(Nc3nccc(-c4sc(N5CCOCC5)nc4-c4cccc(NS(=O)(=O)c5c(F)cccc5F)c4F)n3)cc2C1 ; system UniProt:P00533
100 to 1000 nM

// output IC50; input CC(C)c1nc(-c2cccc(NS(=O)(=O)c3cccnc3)c2)c(-c2ccnc(Nc3ccc(N4CCOCC4)nc3)n2)s1 ; system UniProt:P00533
100 to 1000 nM

// output IC50; input CCc1nc(-c2cccc(CNS(=O)(=O)c3ccccc3)c2)c(-c2ccnc(Nc3ccc(N4CCN(CCS(C)(=O)=O)CC4)c(F)c3)n2)s1 ; system UniProt:P00533
100 to 1000 nM

// output IC50; input CC(C)c1nc(-c2cccc(NS(=O)(=O)c3c(F)cccc3F)c2)c(-c2ccnc(Nc3ccc(N4CCCNCC4)nc3)n2)s1 ; system UniProt:P00533
< 100 nM

// output IC50; input CN(C)c1nc(-c2ccc(F)c(NS(=O)(=O)c3c(F)cccc3F)c2)c(-c2ccnc(Nc3ccc(N4CCOCC4)nc3)n2)s1 ; system UniProt:P00533
100 to 1000 nM

// output IC50; input COc1ccc(Nc2nccc(-c3sc(C(C)C)nc3-c3cccc(NS(=O)(=O)c4ccccc4)c3)n2)cc1N1CCN(CCC#N)CC1 ; system UniProt:P00533
< 100 nM

// output IC50; input CS(=O)(=O)CCN1CCN(c2ccc(Nc3nccc(-c4oc(N5CCCC5)nc4-c4cccc(NS(=O)(=O)c5c(F)cccc5F)c4F)n3)cc2F)CC1 ; system UniProt:P00533
100 to 1000 nM

// output IC50; input COc1cc(OCCN2CCOCC2)c(C)cc1Nc1nccc(-c2sc(C(C)C)nc2-c2cccc(NS(=O)(=O)c3c(F)cccc3F)c2F)n1 ; system UniProt:P00533
100 to 1000 nM

// output IC50; input O=S(=O)(Nc1cccc(-c2nc(N3CCOCC3)sc2-c2ccnc(Nc3ccc(N4CCOCC4)nc3)n2)c1F)c1c(F)cccc1F ; system UniProt:P00533
100 to 1000 nM

// output IC50; input CC(C)c1nc(-c2ccc(F)c(NS(=O)(=O)c3ccccc3F)c2)c(-c2ccnc(Nc3ccc(N4CCN(CCS(C)(=O)=O)CC4)c(F)c3)n2)s1 ; system UniProt:P00533
100 to 1000 nM

// output IC50; input CC(C)c1nc(-c2ccc(F)c(NS(=O)(=O)c3c(F)cccc3F)c2)c(-c2ccnc(Nc3ccc(N4CCOCC4)nc3)n2)s1 ; system UniProt:P00533
100 to 1000 nM
